Each entry below lists one item and its recorded MIC value.
System: Pseudomonas aeruginosa
Test: Antibacterial activity against Pseudomonas aeruginosa LESB58 clinical isolate after 16 to 20 hrs by microdilution assay
Assay type: functional
Peptide text beside a SMILES is read from it. * marks the point of attachment. Decanoyl = CCCCCCCCCC(=O)*
measured quantity: MIC (µg/mL)

molecule	quantitative result
CCCCCCCCCC(=O)NCCCC[C@H](NC(=O)[C@H](Cc1c[nH]c2ccccc12)NC(=O)[C@H](CCCNC(=N)N)NC(=O)[C@H](Cc1c[nH]c2ccccc12)NC(=O)[C@H](CCCNC(=N)N)NC(=O)[C@H](Cc1c[nH]c2ccccc12)NC(=O)[C@@H](N)CCCNC(=N)N)C(=O)O (H-RWRWRWK(Decanoyl)-OH)	128
C[C@@H](O)[C@H]1C(=O)N2C(C(=O)O)=C(S[C@@H]3CN[C@H](C(=O)N(C)C)C3)[C@H](C)[C@H]12	2
NC[C@H]1O[C@H](O[C@H]2[C@H](O)[C@@H](O[C@H]3O[C@H](CO)[C@@H](O)[C@H](N)[C@H]3O)[C@H](N)C[C@@H]2N)[C@H](N)C[C@@H]1O	8
CC(C)(O/N=C(\C(=O)N[C@@H]1C(=O)N2C(C(=O)[O-])=C(C[n+]3ccccc3)CS[C@H]12)c1csc(N)n1)C(=O)O	256
